Kindly supply the reported yeast fitness (ln) values for the records listed here.
B1: tRNA (parent)
chain: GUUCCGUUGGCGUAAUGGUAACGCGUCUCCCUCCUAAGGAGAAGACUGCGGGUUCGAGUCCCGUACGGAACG

- Variants of: B1
- ASSAY_METHOD_TEXT: yeast fitness, log relative to wild type (ln ratio); higher = fitter; tRNA-Arg(CCU), competitive growth, 37 C, 1 M NaCl

INSERT INTO assay_data (mutation_label, test_result) VALUES
  ('G1A G6A C27U A43C A69G C71U', -0.598);

The following variants each have a reported value; give each one's yeast fitness (ln).
1. G1A G6A C27U C46U C66A A69G A70G C71U
2. U2C C46U C66A
3. G1A G6A C46U A69G A70U C71U
4. U2C C66U A70U C71U
5. G6A C66U A70U
6. G1A U2C C27U A43C C46U
7. G1A U2G C46U C66U

-0.145
-0.0347
-0.256
-0.152
-0.0184
-0.0167
-0.0764

For every item in the list below, what is its measured yeast fitness (ln)?
1. G1A C27U A43C C66U A70U C71U
2. G1A U2C G6A C66U C71U

-0.51
-0.083

Quick one: give me yeast fitness (ln) for each item below, same order please.
1. U2C G6A C27U C66A A69G A70G C71U
2. G6A C27U A43C C66U C71U
3. U2G C27U C46U C66U A70G C71U

1: -0.0666; 2: -0.264; 3: -0.175

List yeast fitness (ln) for every entry below, keeping the order given.
1. G1A U2C G6U C46U
2. U2C G6U C27U A70G C71U

0.0116
-0.309

Data credit: the RNAGym collection of RNA variant scans (doi:10.1038/s41586-018-0170-7)
